Measured IC50 values are reported for all entries that follow.
# Test system: MV4-11
# assay.notes: Antiproliferative activity against human MV4-11 cells after 72 hrs by luminescent cell viability assay
# Type: functional, cell-based
# condition.description: MV4-11, 72 h
Kindly provide the numeric value in µM only, without the unit symbol.

Below: 3 molecules and their reported IC50.
{"molecule": "COc1cc(/C=C/CN2C(=O)C=CC2=O)c(C(=O)OC(C)C)c(OC(C)=O)c1", "experimental.endpoint": "IC50", "unit.abbreviation": "µM", "measured.result": 2.15}
{"molecule": "COc1cc(O)c(C(=O)OC(C)C)c(CCCN2C(=O)C=CC2=O)c1", "experimental.endpoint": "IC50", "unit.abbreviation": "µM", "measured.result": 1.57}
{"molecule": "C=CC(=O)NC/C=C/c1cc(OCCc2ccc(F)cc2)cc(O)c1C(=O)OC(C)C", "experimental.endpoint": "IC50", "unit.abbreviation": "µM", "measured.result": 4.45}

Form field - read-out: IC50; system: MV4-11; submitted item: `COc1cc(O)c(C(=O)OC(C)C)c(/C=C/CN2C(=O)C=CC2=O)c1`
1.73

Form field - read-out: IC50; system: MV4-11; submitted item: `C=CC(=O)NC/C=C/c1cc(OCCCN2CCOCC2)cc(O)c1C(=O)OC(C)C`
3.74

Form field - read-out: IC50; system: MV4-11; submitted item: `C=CS(=O)(=O)NC/C=C/c1cc(OC)cc(O)c1C(=O)OCc1ccc(F)cc1`
5.14

Form field - read-out: IC50; system: MV4-11; submitted item: `COc1cc(O)c2c(c1)CCC[C@H](O)[C@H](O)C(=O)/C=C\C[C@H](C)OC2=O`
0.01

Form field - read-out: IC50; system: MV4-11; submitted item: `C=CS(=O)(=O)NC/C=C/c1cc(OC)cc(O)c1C(=O)OCC1CCCCC1`
5.86

Form field - read-out: IC50; system: MV4-11; submitted item: C=CS(=O)(=O)NC/C=C/c1cc(OC)cc(O)c1C(=O)OCC(C)c1ccccc1 (stereo not given)
7.73

Form field - read-out: IC50; system: MV4-11; submitted item: `COc1cc(O)c(C(=O)OCc2ccc(Br)cc2)c(/C=C/CN2C(=O)C=CC2=O)c1`
1.01

Form field - read-out: IC50; system: MV4-11; submitted item: `C=CS(=O)(=O)NC/C=C/c1cc(OC)cc(O)c1C(=O)OC(C)C`
4.66

Form field - read-out: IC50; system: MV4-11; submitted item: `COc1cc(O)c(C(=O)OCC2CCCCC2)c(/C=C/CN2C(=O)C=CC2=O)c1`
1.97

Form field - read-out: IC50; system: MV4-11; submitted item: COc1cc(O)c(C(=O)OCC(C)c2ccccc2)c(/C=C/CN2C(=O)C=CC2=O)c1 (stereo not given)
3.38
